Taken from ChEMBL document CHEMBL1201862.

tested on: HCC 2998; assay: NCI tumour cell line growth inhibition, 48 h
The source made the active and inactive calls. No stated cut-off is given here; in the data, active = GI50 up to about 1.1 µM and inactive = higher. Non-standard residues stand in square brackets, D forms with d. Residues, ends and D or L forms follow the SMILES beside them. ξ: configuration not given here. *: point of attachment. X18 = COC1=CC(=O)N(C(=O)C(O*)C(C)C)C1Cc1ccccc1; ξNMe2Val = CC(C)C(C(=O)*)N(C)C; NMeV = CN[CH](C(=O)O)C(C)C
Reported GI50 is given for each of the following molecules.

{"molecule": "CC(=O)N[C@@H](Cc1ccc(O)cn1)C(=O)NCc1ccc(Cl)cc1", "GI50": "> 100 µM (inactive)"}
{"molecule": "COc1ccc(CCN2CCN(CCc3ccc(OC)cc3)CC2)cc1", "GI50": "> 100 µM (inactive)"}
{"molecule": "N#C[BH2-][n+]1ccc(C(=O)NNCc2ccc(F)cc2)cc1", "GI50": "> 100 µM (inactive)"}
{"molecule": "O=C/C1=C/C2=Cc3ccccc3C=C(/C=C(/C=O)C1)C2", "GI50": "45.9 µM (inactive)"}
{"molecule": "Cc1cc(Cl)ccc1/N=N/C(=O)NNc1ccc(Cl)cc1C", "GI50": "11.5 µM (inactive)"}
{"molecule": "COc1cc(C)c(/C=C2/N=C(c3ccccc3)OC2=O)c([N+](=O)[O-])c1OC", "GI50": "> 100 µM (inactive)"}
{"molecule": "Cc1cc2c(cc1Cl)SC(NNc1ccc([N+](=O)[O-])cc1)=NS2(=O)=O", "GI50": "> 10 µM (inactive)"}
{"molecule": "CC(C)(C)NC(=O)N1N=C(c2ccccc2)C1c1ccccc1 (stereo not drawn)", "GI50": "> 100 µM (inactive)"}
{"molecule": "COC1=CC(=O)N(C(=O)C(OC(=O)C2CCCN2C(=O)C2CCCN2C(=O)C(C(C)C)N(C)C(=O)C(NC(=O)C(C(C)C)N(C)C)C(C)C)C(C)C)C1Cc1ccccc1 (stereo not drawn) (ξNMe2Val-V[NMeV]PP-X18; configuration not given here)", "GI50": "0.00205 µM (active)"}
{"molecule": "Cc1ccc(S(=O)(=O)OCC/C(=C\\[Si](C)(C)C)c2ccccc2)cc1", "GI50": "> 100 µM (inactive)"}
{"molecule": "Cc1c2cccc-2c(OCCO)cc2c3ccccc3n(C)c12", "GI50": "3.64 µM (inactive)"}
{"molecule": "COc1ccc2nccc(/C=C/c3ccc(N(C)C)cc3)c2c1", "GI50": "> 10 µM (inactive)"}
{"molecule": "CN(C)CCNC(=O)C(C)(C)Oc1ccc(C(=O)c2ccc(Cl)cc2)cc1Cl", "GI50": "5.21 µM (inactive)"}
{"molecule": "CC1C[C@]2(C)C(NCCN)=Nc3ccccc3[C@@H]2N(C)c2ccccc21 (stereo partly drawn)", "GI50": "2.9 µM (inactive)"}
{"molecule": "OC[C@H]1NC[C@@H](O)[C@@H](O)[C@H]1O", "GI50": "> 100 µM (inactive)"}
{"molecule": "O=C(O)C12C3CCC(O3)C1(C(=O)O)C1CCC2O1 (stereo not drawn)", "GI50": "> 100 µM (inactive)"}
{"molecule": "[O-][S+]1CC[S+]([O-])CC[S+]([O-])CC1 (stereo not drawn)", "GI50": "> 100 µM (inactive)"}
{"molecule": "OCC(O)COc1c(Cl)cc(Cl)cc1Cl (stereo not drawn)", "GI50": "> 100 µM (inactive)"}
